Where do the numbers come from? From the supplement of paper PMC10702517.

For each record, write down the corresponding chemical recovery.
experiment: chemical recovery from spiked human plasma; higher = better extraction; details: pooled human plasma; extraction method: PES+SPE (3 d PDMS equilibration then HLB SPE);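 further: plasma spiked with over 400 chemicals, quantified by LC-HRMS and GC-HRMS via internal standard calibration against matrix-matched unspiked plasma extracts plus spike mix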
Numbers only, in %.

Examples with their reported chemical recovery follow.
CCN(CC)c1ccc2c(C)cc(=O)oc2c1 [7-Diethylamino-4-methylcoumarin] :: 65.9
COCCCC/C(=N\OCCN)c1ccc(C(F)(F)F)cc1 [Fluvoxamine] :: 4.62
CC12CC3CC(C)(C1)CC(N)(C3)C2 [Memantine] :: 14.8
CC(C)(C)Nc1nc(N)nc(Cl)n1 [Desethylterbutylazine] :: 40.7
NC(=O)/N=C1\SCCN1Cc1ccc(Cl)nc1 [Thiacloprid amide] :: 42.5
N[C@@H](CC(=O)N1CCn2c(nnc2C(F)(F)F)C1)Cc1cc(F)c(F)cc1F [Sitagliptin] :: 33.4
CN1CCC[C@H]1c1cccnc1 [Nicotine] :: 0.141

Exercise: Given the entry COC(=O)c1cc(C(=O)OC)cc(S(=O)(=O)O)c1 [Dimethyl-5-sulfoisophthalate] , report its measured chemical recovery.
Solution: 44.6

---

assay: chemical recovery from spiked human plasma; higher = better extraction; settings: pooled human plasma; extraction method: SPE only (HLB 96-well)
measured endpoint: chemical recovery (%)
Give bare numbers, in %.

Examples with their reported chemical recovery follow.
CN/C(=N/CC1CCOC1)N[N+](=O)[O-] (centres undefined) :: 27.4
CC[C@H](C)[C@H]1O[C@]2(CC[C@@H]1C)C[C@@H]1C[C@@H](C/C=C(\C)[C@@H](O[C@H]3C[C@H](OC)[C@@H](O[C@H]4C[C@H](OC)[C@@H](O)[C@H](C)O4)[C@H](C)O3)[C@@H](C)/C=C/C=C3\CO[C@@H]4[C@H](O)C(C)=C[C@@H](C(=O)O1)[C@]34O)O2 :: 11.5
Oc1ccnc2ccccc12 [4-Hydroxyquinoline] :: 44.7

Exercise: Given the entry Clc1cc(Cl)c(-c2cc(Cl)c(Cl)cc2Cl)cc1Cl , report its measured chemical recovery.
Solution: 1.64

---

experiment: chemical recovery from spiked human plasma; higher = better extraction; conditions: pooled human plasma; extraction method: PES+SPE (3 d PDMS equilibration then HLB SPE)
measured endpoint: chemical recovery (%)
Numbers only, in %.

Examples with their reported chemical recovery follow.
CCC(C)(c1ccc(O)cc1)c1ccc(O)cc1 [Bisphenol-B] :: 63.4
CNCC[C@H](Oc1cccc2ccccc12)c1cccs1 [Duloxetine] :: 1.6
Nc1ccccc1-c1ccccc1 [2-Aminobiphenyl] :: 17.3
O=S(=O)(O)c1ccc2[nH]c(-c3ccccc3)nc2c1 [Phenylbenzimidazole sulfonic acid] :: 43.2
CC(C)c1ccc(NC(=O)N(C)C)cc1 [Isoproturon] :: 46.2

Dear colleague, could you please provide chemical recovery for the compounds listed below?
1. CCNc1nc(NC(C)(C)C)[nH]c(=O)n1 [Terbuthylazine-2-hydroxy]
2. CC(=O)N(CCN(C(C)=O)C(C)=O)C(C)=O [Tetraacetylethylenediamine]

Solution:
41.4
29.2

---

test: chemical recovery from spiked human plasma; higher = better extraction; settings: pooled human plasma; extraction method: SPE only (HLB 96-well), PES comparison experiment
For each record, write down the corresponding chemical recovery.
Answers are plain numbers, in %.

Examples with their reported chemical recovery follow.
CC[C@H](C)[C@H]1O[C@]2(C=C[C@@H]1C)C[C@@H]1C[C@@H](C/C=C(\C)[C@@H](O[C@H]3C[C@H](OC)[C@@H](O[C@H]4C[C@H](OC)[C@@H](NC)[C@H](C)O4)[C@H](C)O3)[C@@H](C)/C=C/C=C3\CO[C@@H]4[C@H](O)C(C)=C[C@@H](C(=O)O1)[C@]34O)O2 [Emamectin B1a] :: 29.7
O=C(O)C(F)(F)C(F)(F)C(F)(F)C(F)(F)C(F)(F)F [Perfluorohexanoic acid] :: 44.4
CC(C)(C)C(=O)C(Oc1ccc(Cl)cc1)n1ccnc1 (centres undefined) [Climbazole] :: 46.8
CNC1=C(c2cccc(C(F)(F)F)c2)C(=O)C(c2ccccc2)O1 (centres undefined) [Flurtamone] :: 49.3
CN(C)NC(=O)CCC(=O)O [Daminozide] :: 3.23
Cc1ccc2[nH]nnc2c1 [5-Methyl-1H-benzotriazole] :: 51.7
COc1ccccc1Oc1c(NS(=O)(=O)c2ccc(C(C)(C)C)cc2)nc(-c2ncccn2)nc1OCCO [Bosentan] :: 49.7
COc1cc(O)c(C(=O)c2ccccc2)cc1S(=O)(=O)O [Benzophenone-4] :: 44.4

Dear colleague, could you please provide chemical recovery for the compounds listed below?
1. CCC(=O)O[C@]1(C(=O)SCF)[C@H](C)C[C@H]2[C@@H]3C[C@H](F)C4=CC(=O)C=C[C@]4(C)[C@@]3(F)[C@@H](O)C[C@@]21C [Fluticasone propionate]
2. Cc1cccc(C(=O)O)c1N(Cn1cccn1)C(=O)C(=O)O [Metazachlor BH479-12]

Solution:
1. 41.1
2. 37.9

Dear colleague, could you please provide chemical recovery for the compounds listed below?
1. N=C(Nc1ccccc1)Nc1ccccc1 [1,3-Diphenylguanidine]
2. Nc1ccc(-c2ccc(N)cc2)cc1 [Benzidine]
3. Clc1ccc(-c2ccc(Cl)cc2Cl)cc1 [PCB28]
4. Clc1ccc(C(c2ccc(Cl)cc2)C(Cl)(Cl)Cl)cc1 [4,4-DDT]

Solution:
1. 48.7
2. 5.89
3. 20.3
4. 52.8
